Values compiled from patent US20220002432A1.

molecular target: T1, CD38 on the surface of Daudi cells (human, UniProt P28907 1-300); test: flow cytometry, Daudi cells;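 further: purified antibodies incubated with Daudi cells for 1 h at 4 °C, bound antibody detected by fluorescent secondary antibody and read by flow cytometry as MFI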
T1 construct: whole, on cells
Readout kind: pEC50
pEC50 is a log-scale quantity: -log10 of the concentration expressed in molar.

{"columns": ["Binder", "Measured"],
 "data": [
  ["26D4 (antibody, human IgG1, kappa, V domains shown, Rabbit-human chimeric anti-CD38: rabbit VH and VL on human IgG1 and kappa constant regions) VH: QEQLEESGGDLVKPEGSLTLTCTASGFSFSNDAICWVRQAPGKGLEWIACIYAGSGNTYYASWAKGRFSISKTSSTTVTLQMTSLTVADTATYFCASADTIDYFNLWGPGTLVTVSS VL: AQVLTQTPSPVSAAVGGTVTINCQASQSVYNNNYLAWYQQKPGQPPKLLIYRASNLASGVPSRFSASGSGTQFTLTISEVQSDDAATYYCQAYYRDPTTAFGGGTEVVVKR", 8.39]
]}

# input binder: 21H9 (antibody, human IgG1, kappa, V domains shown, Rabbit-human chimeric anti-CD38: rabbit VH and VL on human IgG1 and kappa constant regions) VH: QSLEESGGDLVKPGASLTLTCTASGFSATTYYYYMCWVRQAPGKGLEWIACTYTGDGATYYATWAKGRFTISKTSSTTVTLQMTSLTAADTATYFCARSADNSIYYGYFNLWGPGTLVTVSS VL: AFELTQTPFSVSEPVGGTVTINCQASENIYSSLAWYQQKPGQPPKLLIYRASTLASGVPSRFSGSGSGTEFTLTISGVQSDDAATYYCQTYYGSTSTGFTFGGGTEVVVKR ; wanted: its pEC50 8.92
